- Tested on: NCI-H446
- assay_notes: Cytotoxicity against human NCI-H446 cells assessed as inhibition of cell growth incubated for 48 hrs by MTT assay
- Assay type: functional, cell-based
- condition_label: NCI-H446, 48 h
Structures can show the parent of a compound that is named as a salt.
Property: IC50; scope: individual molecules

# molecule, study_system, IC50
records = [
    ("C=C(C)C(=O)CC[C@@H](C)[C@H]1[C@H](O)C[C@@]2(C)[C@@H]3CC[C@H]4C(C)(C)[C@@H](O)CC[C@]4(O)CC3=CC[C@]12C", "NCI-H446", "5 µM"),
    ("COc1cccc2c1C(=O)c1c(O)c3c(c(O)c1C2=O)C[C@@](O)(C(=O)CO)C[C@@H]3O[C@H]1C[C@H](N)[C@H](O)[C@H](C)O1 [DOXORUBICIN HYDROCHLORIDE]", "NCI-H446", "1.7 µM"),
    ("C=C(C[C@@H](C)[C@H]1[C@H](O)C[C@@]2(C)[C@@H]3CC[C@H]4C(C)(C)[C@@H](O)CC[C@]4(O)CC3=CC[C@]12C)C(C)C", "NCI-H446", "9.6 µM"),
    ("CC(C)=CCC[C@@H](C)[C@H]1[C@H](O)C[C@@]2(C)[C@@H]3CC[C@H]4C(C)(C)[C@@H](O)CC[C@]4(O)CC3=CC[C@]12C", "NCI-H446", "7.5 µM"),
]
